# system tested: human TRPA1 (Homo sapiens, UniProt O75762)
# Construct: expressed in transfected cells; host or cells: Human embryonic kidney-derived 293T cells, transiently transfected with the pcDNA3.1/zeo(+) human TRPA1 plasmid
# Sequence (O75762 whole entry): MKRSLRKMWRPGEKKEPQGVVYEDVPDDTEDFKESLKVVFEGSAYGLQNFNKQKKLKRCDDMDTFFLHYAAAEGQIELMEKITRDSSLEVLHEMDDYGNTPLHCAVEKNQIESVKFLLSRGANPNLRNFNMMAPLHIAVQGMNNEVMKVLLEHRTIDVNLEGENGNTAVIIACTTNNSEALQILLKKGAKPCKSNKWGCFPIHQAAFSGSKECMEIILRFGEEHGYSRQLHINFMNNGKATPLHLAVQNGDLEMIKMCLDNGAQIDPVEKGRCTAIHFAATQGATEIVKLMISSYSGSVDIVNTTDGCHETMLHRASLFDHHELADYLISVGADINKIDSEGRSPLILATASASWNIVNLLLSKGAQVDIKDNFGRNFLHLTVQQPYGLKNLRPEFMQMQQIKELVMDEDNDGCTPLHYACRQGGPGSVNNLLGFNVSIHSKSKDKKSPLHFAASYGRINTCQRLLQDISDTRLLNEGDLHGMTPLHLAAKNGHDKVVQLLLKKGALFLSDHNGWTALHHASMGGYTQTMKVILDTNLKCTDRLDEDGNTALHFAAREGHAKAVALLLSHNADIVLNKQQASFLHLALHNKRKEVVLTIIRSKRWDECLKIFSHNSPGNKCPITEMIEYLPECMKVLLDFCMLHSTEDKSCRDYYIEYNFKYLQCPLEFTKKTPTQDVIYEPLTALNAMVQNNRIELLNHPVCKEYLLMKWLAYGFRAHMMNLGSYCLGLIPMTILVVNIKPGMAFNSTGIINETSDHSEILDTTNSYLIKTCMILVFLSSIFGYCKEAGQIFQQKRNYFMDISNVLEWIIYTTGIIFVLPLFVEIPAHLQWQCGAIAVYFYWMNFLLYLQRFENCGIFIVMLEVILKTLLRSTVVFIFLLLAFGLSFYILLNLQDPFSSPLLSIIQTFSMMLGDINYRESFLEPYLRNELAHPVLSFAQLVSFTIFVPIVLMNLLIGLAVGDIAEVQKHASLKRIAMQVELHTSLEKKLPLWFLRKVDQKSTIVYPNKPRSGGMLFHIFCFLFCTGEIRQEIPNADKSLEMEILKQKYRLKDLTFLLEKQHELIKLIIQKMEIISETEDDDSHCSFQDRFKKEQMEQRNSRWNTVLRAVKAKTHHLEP
# test details: Measurement of TRPA1 antagonist activity (intracellular calcium increase, FLIPR, allylisothiocyanate stimulation)
# Type: cell-based
# conditions: 293T cells transfected with human TRPA1; allylisothiocyanate 20 μM; concentration for 50% inhibitory rate; read-out: antagonism hTRPA1
pIC50: −log10 of the molar value.
parameter measured: pIC50

// solved cases for pIC50 follow
- entry smiles: "O=C(NCc1ccc(COc2c(F)cccc2F)cc1)[C@@H]1CCCN1S(=O)(=O)c1ccc(Cl)s1"
  test result: 6.89
- entry smiles: "O=C(NCc1cccc(OCc2ccc(C(F)(F)F)cc2)c1)[C@@H]1CCCN1S(=O)(=O)c1ccc(Cl)s1"
  test result: 7.72
- entry smiles: "O=C(NCc1cccc(Oc2ccc(C(F)(F)F)cc2)c1)[C@@H]1C=CCN1S(=O)(=O)c1ccc(Cl)s1"
  test result: 7.72

P: O=C(NCc1ccc(Oc2ccc(F)cc2)cc1)[C@@H]1CCCN1S(=O)(=O)c1ccc(Cl)s1
Q: O=C(NCc1cccc(OCc2cccc(F)c2)c1)[C@@H]1CCCN1S(=O)(=O)c1ccc(Cl)s1
R: O=C(NCc1ccc(COc2ccccc2)cc1)[C@@H]1CCCN1S(=O)(=O)c1cccc(F)c1
S: O=C(NCc1ccc(COc2ccccc2Cl)cc1)[C@@H]1CCCN1S(=O)(=O)c1ccc(Cl)s1
Task field, ranking: reported pIC50, descending order. Your task in answering is to list the labels in the requested order. Q, P, S, R
